Target: Soybean 15-LO (Glycine max, UniProt P08170)
Construct: purchased Sigma Chemical Co. (St. Louis, Mo.) Type V
Sequence (P08170 whole entry): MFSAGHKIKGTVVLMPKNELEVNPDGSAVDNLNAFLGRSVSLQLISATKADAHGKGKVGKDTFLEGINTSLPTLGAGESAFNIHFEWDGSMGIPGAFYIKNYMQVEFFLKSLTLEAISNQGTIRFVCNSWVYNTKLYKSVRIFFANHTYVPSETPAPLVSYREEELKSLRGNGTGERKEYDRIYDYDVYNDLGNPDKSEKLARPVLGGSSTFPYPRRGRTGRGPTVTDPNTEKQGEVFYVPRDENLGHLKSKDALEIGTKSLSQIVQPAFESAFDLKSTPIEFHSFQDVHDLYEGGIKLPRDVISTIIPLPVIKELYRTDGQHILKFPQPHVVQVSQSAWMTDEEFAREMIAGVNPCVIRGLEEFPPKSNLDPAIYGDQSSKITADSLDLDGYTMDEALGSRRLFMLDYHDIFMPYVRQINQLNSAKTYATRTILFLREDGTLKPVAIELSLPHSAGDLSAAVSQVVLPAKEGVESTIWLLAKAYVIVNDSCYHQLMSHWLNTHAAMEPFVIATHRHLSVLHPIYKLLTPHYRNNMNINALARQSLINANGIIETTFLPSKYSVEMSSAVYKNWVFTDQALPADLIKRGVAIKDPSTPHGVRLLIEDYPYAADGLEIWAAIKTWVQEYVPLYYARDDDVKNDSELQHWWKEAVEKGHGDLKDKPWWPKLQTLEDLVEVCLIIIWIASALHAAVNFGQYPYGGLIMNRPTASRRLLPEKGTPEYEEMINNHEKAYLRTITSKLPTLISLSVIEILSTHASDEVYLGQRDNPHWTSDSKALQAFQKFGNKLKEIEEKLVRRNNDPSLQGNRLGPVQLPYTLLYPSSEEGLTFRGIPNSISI
Assay: Assay of soybean 15-lipoxygenase (oxygen consumption, Clark oxygen electrode)
Format: biochemical
Details: read-out: Enzyme Activity (Relative ± S.D.)
PROPERTY MEASURED: remaining activity at 50 µM (%)
Numbers only, in %.

Here's what some known entries look like.
// query Please give measured remaining activity at 50 µM of the following entry: CC(=O)OCC(OC(C)=O)C(OC(C)=O)C(CCC(C)C1CCC2(C)C1CCC1(C)C2CCC2C3(C)CCCC(C)(C)C3CCC21C)OC(C)=O (stereo not shown) [THBH-Acet]
// result 114

// query Please give measured remaining activity at 50 µM of the following entry: CC(CCC(O)C(O)C(O)COC1C(N)C(O)C(O)C1(O)CO)C1CCC2(C)C1CCC1(C)C2CCC2C3(C)CCCC(C)(C)C3CCC21C (stereo not shown) [THBH-Et, tetrahydroxybacteriohopane ether]
// result 250

// query Please give measured remaining activity at 50 µM of the following entry: CC(CCC(O)C(O)C(O)COC1OC(CO)C(O)C(O)C1N)C1CCC2(C)C1CCC1(C)C2CCC2C3(C)CCCC(C)(C)C3CCC21C (stereo not shown) [THBH-GA, tetrahydroxybacteriohopane glucosamine]
// result 188

---
// query Please give measured remaining activity at 50 µM of the following entry: C[C@H](CC[C@@H](O)[C@@H](O)[C@@H](O)CO)[C@H]1CC[C@]2(C)[C@H]3CC[C@@H]4[C@@]5(C)CCCC(C)(C)[C@@H]5CC[C@@]4(C)[C@]3(C)CC[C@@H]12 [THBH, tetrahydroxybacteriohopane]
// result 4

Hey, just so you know, these numbers are from patent US6177415A.
